Reported IC50 values for the following compounds.
# assayed-system: Angiotensin II receptor (Rattus norvegicus, UniProt P29089+P25095+P35351)
# procedure-details: Angiotensin II receptor antagonist activity was determined by 50% inhibition of specific binding of [3H]angiotensin II (2 nM) to rat adrenal cortical microsomes

| substance-smiles | units-of-measure | IC50 |
| --- | --- | --- |
| CCCc1nc(C(F)(F)C(F)(F)F)c(CO)n1Cc1ccc(-c2ccccc2-c2nn[nH]n2)cc1 | nM | 1.2 |
| CCCc1nc(C(F)(F)C(F)(F)C(F)(F)C(F)(F)F)c(CO)n1Cc1ccc(-c2ccccc2C(=O)O)cc1 | nM | 290 |
| CCCc1nc(C(F)(F)C(F)(F)F)c(CO)n1Cc1ccc(-c2ccccc2C(=O)O)cc1 | nM | 48 |
| CCCc1nc(C(F)(F)C(F)(F)C(F)(F)F)c(CO)n1Cc1ccc(-c2ccccc2-c2nn[nH]n2)cc1 | nM | 13 |

###

# assayed-system: Angiotensin II receptor (Rattus norvegicus, UniProt P29089+P25095+P35351)
# procedure-details: Angiotensin II receptor antagonist activity was determined by 50% inhibition of specific binding of [3H]angiotensin II (2 nM) to rat adrenal cortical microsomes
Reported IC50 values for the following compounds.

| substance-smiles | IC50 / nM |
| --- | --- |
| CCCc1nc(C(F)(F)F)c(CO)n1Cc1ccc(-c2ccccc2C(=O)O)cc1 | 130 |
| CCCc1nc(C(F)(F)C(F)(F)C(F)(F)F)c(CO)n1Cc1ccc(-c2ccccc2C(=O)O)cc1 | 74 |
| CCCc1nc(C(F)(F)C(F)(F)C(F)(F)C(F)(F)C(F)(F)C(F)(F)F)c(CO)n1Cc1ccc(-c2ccccc2C(=O)O)cc1 | 2500 |
| CCCc1nc(C(F)(F)F)c(CO)n1Cc1ccc(-c2ccccc2-c2nn[nH]n2)cc1 | 6.4 |
